Hello, the source for this data is patent US20250353912A1, in case you need it.

target: T1, HLA-A*02:01 in complex with the EGFR peptide … conjugated with osimertinib (human, osimertinib covalently bound to Cys); assay: yeast display
T1 construct: also called HLA-A*02:01_EGFR-osimertinib; osimertinib-EGFR/HLA-A*02
measured_attribute: binding result

| binder | binding result |
| --- | --- |
| EO_Q05 (scFv, V domains shown, yeast-display scFv) VH: EVQLVESGGGLVQPGGSLRLSCAASGFTISSSYIHWVRQAPGKGLEWVAYISPSYGSTSYADSVKGRFTISADTSKNTAYLQMNSLRAEDTAVYYCAREEVTMSIDYWGQGTLVTVSS VL: DIQMTQSPSSLSASVGDRVTITCRASQSVSSAVAWYQQKPGKAPKLLIYSASSLYSGVPSRFSGSRSGTDFTLTISSLQPEDFATYYCQQYAEWPITFGQGTKVEIKR | binds |
| EO_Q01 (scFv, V domains shown, yeast-display scFv) VH: EVQLVESGGGLVQPGGSLRLSCAASGFTISSSYIHWVRQAPGKGLEWVAYISPSYGSTSYADSVKGRFTISADTSKNTAYLQMNSLRAEDTAVYYCARELVTMTADYWGQGTLVTVSS VL: DIQMTQSPSSLSASVGDRVTITCRASQSVSSAVAWYQQKPGKAPKLLIYSASSLYSGVPSRFSGSRSGTDFTLTISSLQPEDFATYYCQQYSHWPITFGQGTKVEIKR | binds |
| EO_Q08 (scFv, V domains shown, yeast-display scFv) VH: EVQLVESGGGLVQPGGSLRLSCAASGFTISSSYIHWVRQAPGKGLEWVAYISPSYGSTSYADSVKGRFTISADTSKNTAYLQMNSLRAEDTAVYYCARELTEMTTDYWGQGTLVTVSS VL: DIQMTQSPSSLSASVGDRVTITCRASQSVSSAVAWYQQKPGKAPKLLIYSASSLYSGVPSRFSGSRSGTDFTLTISSLQPEDFATYYCQQYSSWPITFGQGTKVEIKR | binds |
| EO_Q18 (scFv, V domains shown, yeast-display scFv) VH: EVQLVESGGGLVQPGGSLRLSCAASGFTISSSYIHWVRQAPGKGLEWVAYISPSYGSTSYADSVKGRFTISADTSKNTAYLQMNSLRAEDTAVYYCAREYVTMALDYWGQGTLVTVSS VL: DIQMTQSPSSLSASVGDRVTITCRASQSVSSAVAWYQQKPGKAPKLLIYSASSLYSGVPSRFSGSRSGTDFTLTISSLQPEDFATYYCQQYSAWPETFGQGTKVEIKR | binds |

Shifting focus to the binder that follows.
Can you look up the measured binding result of EO_Q02 (scFv, V domains shown, yeast-display scFv) VH: EVQLVESGGGLVQPGGSLRLSCAASGFTISSSYIHWVRQAPGKGLEWVAYISPSYGSTSYADSVKGRFTISADTSKNTAYLQMNSLRAEDTAVYYCAREYTTMSIDYWGQGTLVTVSS VL: DIQMTQSPSSLSASVGDRVTITCRASQSVSSAVAWYQQKPGKAPKLLIYSASSLYSGVPSRFSGSRSGTDFTLTISSLQPEDFATYYCQQYSAWPETFGQGTKVEIKR for me? binds
